Tested on: MRC-5 human fibroblasts
Experiment: Cytotoxicity assay (AlamarBlue) on MRC-5 human fibroblasts
Assay type: cell-based
Details: MRC5, MRC-5, 48 h, read-out: IC50 Human fibroblasts MRC-5
pIC50: −log10 of the molar value.
So I've got a bunch of molecules here, and I need their pIC50 values.

Exam item: Could you share which pIC50 value was measured for "C=C1[C@@H]([C@@]2(C)C=CC(=O)C(C)(C)[C@@H]2CC(=O)OC)CC[C@@]2(C)[C@H](c3ccoc3)OC(=O)[C@H]3O[C@]132" ?
Marked response: < 3.69

Exam item: Could you share which pIC50 value was measured for CC(=O)O[C@@H]1C2C(C)(C)C(=O)C=C[C@]2(C)C2CC[C@@]3(C)[C@H](c4ccoc4)C(=O)[C@H]4O[C@]43[C@]2(C)[C@@H]1OC(C)=O (stereo partly shown) ?
Marked response: < 3.72

Exam item: Could you share which pIC50 value was measured for CC1(C)C(=O)C=C[C@@]2(C)C1[C@@H](O)[C@@H](O)[C@]1(C)C2CC[C@@]2(C)[C@H](c3ccoc3)OC(=O)[C@H]3O[C@]321 (stereo partly drawn) [compound 5, 6α-hydroxydeacetylgedunin] ?
Marked response: < 3.66

Exam item: Could you share which pIC50 value was measured for CC(=O)O[C@@H]1C2C(C)(C)C(=O)C=C[C@]2(C)C2CC[C@@]3(C)[C@H](c4ccoc4)OC(=O)[C@H]4O[C@]43[C@]2(C)[C@@H]1OC(C)=O (stereo partly shown) ?
Marked response: < 3.73
